- STUDY SYSTEM: GDP-bound KRAS wild-type protein (Homo sapiens)
- Sequence (P01116 1-188 isoform P01116-2): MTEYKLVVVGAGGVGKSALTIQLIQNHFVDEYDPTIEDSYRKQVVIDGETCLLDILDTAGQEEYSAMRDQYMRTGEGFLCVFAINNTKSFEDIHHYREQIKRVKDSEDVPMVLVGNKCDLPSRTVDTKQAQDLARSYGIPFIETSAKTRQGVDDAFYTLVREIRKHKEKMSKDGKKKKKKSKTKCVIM
- METHOD NOTES: Binding to KRAS by surface plasmon resonance (SPR), dissociation constant KD
- CONDITION CONTEXT: Single Cycle Kinetics, 1:1 binding model
RECORDED METRIC: Kd (nM)
Provide only the numeric value, understood in nM.

CCC[C@H]1C(=O)N[C@@H]([C@@H](C)CC)C(=O)N(C)CC(=O)N(C)[C@H]2C/C=C\CCN(C2=O)[C@@H](Cc2ccc(C(F)(F)F)cc2)C(=O)N(C)CC(=O)N[C@@H](CCc2ccc(Cl)c(Cl)c2)C(=O)N2C[C@H](OCC)C[C@H]2C(=O)NC2(CC(C)(C)C2)C(=O)N(C)[C@@H](C(CC)CC)C(=O)N(C)[C@H](C(=O)N(C)C)CC(=O)N1C 0.45

// returns reported Kd for input `CCO[C@@H]1C[C@H]2C(=O)NC3(CCC3)C(=O)N(C)[C@@H](C3CCCC3)C(=O)N(C)[C@H](C(=O)N(C)C)CC(=O)N(C)[C@@H](CC3CC3)C(=O)N[C@@H]([C@@H](C)CC)C(=O)N(C)CC(=O)N(C)[C@H]3C/C=C\CCN(C3=O)[C@@H](Cc3ccc(C)cc3)C(=O)N(C)CC(=O)N[C@@H](CCc3cc(F)c(C(F)(F)F)c(F)c3)C(=O)N2C1`
0.074

Lookup `CCO[C@@H]1C[C@H]2C(=O)NC3(CC(C)(C)C3)C(=O)N(C)[C@@H](C3CCCC3)C(=O)N(C)[C@H](C(=O)N(C)C)CC(=O)N(C)[C@@H](CC3CC3)C(=O)N[C@@H]([C@@H](C)CC)C(=O)N(C)CC(=O)N(C)[C@H]3C/C=C\CCN(C3=O)[C@@H](Cc3ccc(C)cc3)C(=O)N(C)CC(=O)N[C@@H](CCc3ccc(C(F)(F)F)c(OC)c3)C(=O)N2C1`
0.063

Next record, please: `CCO[C@@H]1C[C@H]2C(=O)NC3(CCC3)C(=O)N(C)[C@@H](C3CCCC3)C(=O)N(C)[C@H](C(=O)N3CCOCC3)CC(=O)N(C)[C@@H](CC(F)F)C(=O)N[C@@H]([C@@H](C)CC)C(=O)N(C)CC(=O)N(C)[C@H]3C/C=C\CCN(C3=O)[C@@H](Cc3ccc(C(F)(F)F)cc3)C(=O)N(C)CC(=O)N[C@@H](CCc3cc(F)c(C(F)(F)F)c(F)c3)C(=O)N2C1`
0.15

Same for `CCCCCC[C@H]1C(=O)N[C@@H]([C@@H](C)CC)C(=O)N(C)CC(=O)N(C)[C@H]2C/C=C\CCN(C2=O)[C@@H](Cc2ccc(C(F)(F)F)cc2)C(=O)N(C)CC(=O)N[C@@H](CCc2ccc(C(F)(F)F)c(OC)c2)C(=O)N2C[C@H](OCC)C[C@H]2C(=O)NC2(CCC2)C(=O)N(C)[C@@H](C2CCCC2)C(=O)N(C)[C@H](C(=O)N(C)C)CC(=O)N1C`
0.081

Another compound: `CC[C@H](C)[C@@H]1NC(=O)[C@H](CC2CCCC2)N(C)C(=O)C[C@@H](C(=O)N(C)C)N(C)C(=O)[C@H](C2CCCC2)N(C)C(=O)C2(CCC2)NC(=O)[C@@H]2C[C@@H](C(F)(F)F)CN2C(=O)[C@H](CCc2cc(F)c(C(F)(F)F)c(F)c2)NC(=O)CN(C)C(=O)[C@H](Cc2ccc(F)cc2)N2CC/C=C\C[C@@H](C2=O)N(C)C(=O)CN(C)C1=O`
0.15
